# METHOD NOTES: physchem
# CONDITION INFO: water, solubility in water
QUANTITY NAME: solubility (µg/mL)
Reply numerically in µg/mL, unit not repeated.

Exercise: Please report the measured solubility for COCCOCCOCCNC(=O)/C(C#N)=C/c1ccc2cc(N3CCCCC3)ccc2c1
Solution: 3

====

# METHOD NOTES: physchem
# CONDITION INFO: aqueous with cosolvent or surfactant or cyclodextrin, solubility in the other water miscible solvents listed
QUANTITY NAME: solubility

Exercise: Please report the measured solubility for COCCOCCOCCNC(=O)/C(C#N)=C/c1ccc2cc(N3CCCCC3)ccc2c1
Solution: 2000 to 3000 µg/mL

====

# METHOD NOTES: physchem
# CONDITION INFO: pH 2.5, aqueous buffer, Conc (mg/mL)
QUANTITY NAME: solubility (µg/mL)
Reply numerically in µg/mL, unit not repeated.

Exercise: Please report the measured solubility for COCCOCCOCCNC(=O)/C(C#N)=C/c1ccc2cc(N3CCCCC3)ccc2c1
Solution: 1630

====

# METHOD NOTES: Hydrolytic decomposition in PBS by HPLC
# Assay type: physicochemical
# CONDITION INFO: PBS with 5% DMSO, 25° C., read-out: t1/2 for hydrolysis (converted)
# Excerpt: In certain in vivo environments (especially at high or low pH or in the presence of esterases), ANCA-11 is expected to decompose very rapidly due to the poor stability of its ester functionality. The amide functionality in Compound 1 alleviates the problem of hydrolytic instability inherent to ANCA-11.
QUANTITY NAME: half-life

Exercise: Please report the measured half-life for COCCOCCOCCNC(=O)/C(C#N)=C/c1ccc2cc(N3CCCCC3)ccc2c1
Solution: ~6.25 days

Query compound follows.
Exercise: Please report the measured half-life for COCCOCCOCCOC(=O)/C(C#N)=C/c1ccc2cc(N3CCCCC3)ccc2c1 [ANCA-11, reference compound]
Solution: ~0.458 days

====

# METHOD NOTES: physchem
# CONDITION INFO: pH 2, aqueous buffer, solubility in acid buffers
QUANTITY NAME: solubility

Exercise: Please report the measured solubility for COCCOCCOCCNC(=O)/C(C#N)=C/c1ccc2cc(N3CCCCC3)ccc2c1
Solution: ≤ 350 µg/mL

====

# METHOD NOTES: physchem
# CONDITION INFO: aqueous buffer, solubility at lower pH and higher acidic buffer strength
QUANTITY NAME: solubility

Exercise: Please report the measured solubility for COCCOCCOCCNC(=O)/C(C#N)=C/c1ccc2cc(N3CCCCC3)ccc2c1 [Compound 1]
Solution: > 6000 µg/mL

====

# METHOD NOTES: physchem
# CONDITION INFO: organic solvent or mixture, solubility in water miscible solvents: alcohols
QUANTITY NAME: solubility

Exercise: Please report the measured solubility for COCCOCCOCCNC(=O)/C(C#N)=C/c1ccc2cc(N3CCCCC3)ccc2c1 [Compound 1]
Solution: > 5000 µg/mL

====

# METHOD NOTES: physchem
# CONDITION INFO: oil or lipid, solubility in all oils tested
QUANTITY NAME: solubility

Exercise: Please report the measured solubility for COCCOCCOCCNC(=O)/C(C#N)=C/c1ccc2cc(N3CCCCC3)ccc2c1 [Compound 1]
Solution: > 5000 µg/mL

====

# METHOD NOTES: physchem
# CONDITION INFO: organic solvent or mixture, Solubility (mg/mL)
QUANTITY NAME: solubility (mg/mL)
Reply numerically in mg/mL, unit not repeated.

Exercise: Please report the measured solubility for COCCOCCOCCNC(=O)/C(C#N)=C/c1ccc2cc(N3CCCCC3)ccc2c1
Solution: 20

====

# METHOD NOTES: physchem
# CONDITION INFO: water, Conc (mg/mL)
QUANTITY NAME: solubility (µg/mL)
Reply numerically in µg/mL, unit not repeated.

Exercise: Please report the measured solubility for COCCOCCOCCNC(=O)/C(C#N)=C/c1ccc2cc(N3CCCCC3)ccc2c1 [Compound 1]
Solution: 3.1
